Kindly supply the reported pIC50 values for the records listed here.
molecular target: Bcat-Halo (UniProt P35222); test: NanoBRET Abs IC50; B-cat-Halo / TCF4-Luc engagement in HEK293 cells
Sequence (P35222 whole entry): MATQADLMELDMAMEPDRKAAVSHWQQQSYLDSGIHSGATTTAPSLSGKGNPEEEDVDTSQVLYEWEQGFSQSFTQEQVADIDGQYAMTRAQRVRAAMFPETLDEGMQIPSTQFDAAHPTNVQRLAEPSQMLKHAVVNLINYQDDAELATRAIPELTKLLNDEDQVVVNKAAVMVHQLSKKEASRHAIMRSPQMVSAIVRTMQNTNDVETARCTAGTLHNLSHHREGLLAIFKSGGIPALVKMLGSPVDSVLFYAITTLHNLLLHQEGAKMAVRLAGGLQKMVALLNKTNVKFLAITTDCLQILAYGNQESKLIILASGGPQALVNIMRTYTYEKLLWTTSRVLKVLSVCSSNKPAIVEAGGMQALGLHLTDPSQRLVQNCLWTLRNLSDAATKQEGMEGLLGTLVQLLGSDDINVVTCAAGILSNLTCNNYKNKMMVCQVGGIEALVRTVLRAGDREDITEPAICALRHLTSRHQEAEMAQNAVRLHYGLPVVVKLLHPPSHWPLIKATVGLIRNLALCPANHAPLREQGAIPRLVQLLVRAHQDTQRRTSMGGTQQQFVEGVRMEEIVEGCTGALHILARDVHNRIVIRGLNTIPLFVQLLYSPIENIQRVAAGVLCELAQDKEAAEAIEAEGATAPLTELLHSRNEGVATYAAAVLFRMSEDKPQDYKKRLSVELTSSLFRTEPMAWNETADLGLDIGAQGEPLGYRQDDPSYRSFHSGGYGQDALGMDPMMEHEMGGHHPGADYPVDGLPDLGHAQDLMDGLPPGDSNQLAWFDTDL
Starred links: 1 amine or outer side, 2 acyl side, 3 side chain; linkers in the order of their positions; H or OH if unused. Positions of bridges follow the written chain, without caps; N, C: chain ends. Non-standard residues stand in square brackets, D forms with d. Primed or numbered codes have the meaning given here. PyrS2″ = (S)-3-amino-1-((pent-4-en-1-yloxy)carbonyl)pyrrolidine-3-carboxylic acid (stapling residue), C=CCCCOC(=O)N1CC[C@@](N[*:1])(C(=O)[*:2])C1; PyrS2 = (S)-3-amino-1-((pent-4-en-1-yloxy)carbonyl)pyrrolidine-3-carboxylic acid, C=CCCCOC(=O)N1CC[C@@](N[*:1])(C(=O)[*:2])C1; SPip2 = 4-amino-1-((pent-4-en-1-yloxy)carbonyl)piperidine-4-carboxylic acid, C=CCCCOC(=O)N1CCC(N[*:1])(C(=O)[*:2])CC1; B5(25) = 2-amino-2-(pent-4-en-1-yl)hept-6-enoic acid (stitching residue), C=CCCCC(CCCC=C)(N[*:1])C(=O)[*:2]; B5 = 2-amino-2-(pent-4-en-1-yl)hept-6-enoic acid, C=CCCCC(CCCC=C)(N[*:1])C(=O)[*:2]; Phe(3-COOH) = N[C@@H](Cc1cccc(C(=O)O)c1)C(=O)O; Phe(2-CF3) = N[C@@H](Cc1ccccc1C(F)(F)F)C(=O)O; Bta = N[C@@H](Cc1csc2ccccc12)C(=O)O; αAllylPro = C=CC[C@@]1(C(=O)O)CCCN1; tBuAla = CC(C)(C)C[C@H](N)C(=O)O; 3Thi = N[C@@H](Cc1ccsc1)C(=O)O; Aib = CC(C)(N)C(=O)O
Scale note: pIC50 = -log10(concentration in M).

Asked: State its pIC50: Ac-[αAllylPro]D[tBuAla][B5(25)]D[Phe(3-COOH)][Aib]AF[dS][PyrS2″][3Thi][Bta][dS]A-NH2 (staple 1-4, 4-11 (inferred); not fully specified; printed as Ac-PL3-Asp-Npg-B5-Asp-3COOHF-Aib-Ala-Phe-dSer-PyrS2-3Thi-BztA-dSer-Ala-NH2) [I-2576]
Given back: 4.79

Asked: State its pIC50: Ac-[αAllylPro]D[tBuAla][B5]D[Phe(3-COOH)][Aib]AFK(Ac)[PyrS2][Phe(2-CF3)][Bta]AA-NH2 (staple 1-4, 4-11; not fully specified; printed as Ac-PL3-Asp-Npg-B5-Asp-3COOHF-Aib-Ala-Phe-AcLys-PyrS2-2F3MeF-BztA-Ala-Ala-NH2) [I-2579]
Given back: 5.33

Asked: State its pIC50: Ac-[αAllylPro]D[tBuAla][B5]D[Phe(3-COOH)][Aib]AFK(Ac)[PyrS2][3Thi][Bta]AA-NH2 (staple 1-4, 4-11; not fully specified; printed as Ac-PL3-Asp-Npg-B5-Asp-3COOHF-Aib-Ala-Phe-AcLys-PyrS2-3Thi-BztA-Ala-Ala-NH2) [I-2578]
Given back: 5.26

Asked: State its pIC50: Ac-[αAllylPro]D[tBuAla][B5]D[Phe(3-COOH)]QAFL[SPip2][3Thi][Bta]A-NH2 (staple 1-4; staple 4-11 (inferred); also: later-eluting HPLC staple isomer composition) [I-2593]
Given back: 4.53

Asked: State its pIC50: Ac-[αAllylPro]D[tBuAla][B5(25)]D[Phe(3-COOH)][Aib]AFS[PyrS2″][3Thi][Bta]SA-NH2 (staple 1-4, 4-11 (inferred); not fully specified; printed as Ac-PL3-Asp-Npg-B5-Asp-3COOHF-Aib-Ala-Phe-Ser-PyrS2-3Thi-BztA-Ser-Ala-NH2) [I-2577]
Given back: 5.57
